# targetOrSystem: insulin degradation enzyme (IDE) (Homo sapiens, UniProt P14735)
# testName: Inhibition of IDE activity
# Assay type: biochemical
# condition: Example 9, Table 3
measureName: IDE inhibition

## Input Requested read-out: IDE inhibition. Entry: VVAAAFVHFY [ECM10, ADIPOR1 fragment, 10 amino acids]
## Output inhibit IDE activity

## Input Requested read-out: IDE inhibition. Entry: SGCTDDTLL [ECM9, ADIPOR1 fragment, 9 amino acids]
## Output inhibit IDE activity

## Input Requested read-out: IDE inhibition. Entry: HFYGVSNLQEFRYGLEGGCTDDTLL [ECM25, ADIPOR1 C-terminal fragment, 25 amino acids]
## Output inhibit IDE activity
